Reference for the values: patent US7598417B2

Recorded log10 EC50 for the following compounds
system-tested: alpha2C receptor (Homo sapiens)
Construct: expressed in transfected cells; host or cells: NIH-3T3
method-description: Receptor Selection and Amplification Technology (RSAT) assay, alpha2C
Assay type: cell-based
test-settings: RSAT, NIH-3T3 cells cotransfected with receptor and Gq/i5; not active = not active at concentrations less than 10 micromolar; read-out: Alpha 2C EC50
Description: Receptor Selection and Amplification Technology (RSAT) Assay The RSAT assay measures a receptor-mediated loss of contact inhibition that results in selective proliferation of receptor-containing cells in a mixed population of confluent cells. The increase in cell number is assessed with an appropriate transfected marker gene such as β-galactosidase, the activity of which can be easily measured in a 96-well format. Receptors that activate the G protein, Gq, elicit this response. […]
# values: log10(EC50), units nM

The cases that follow already have their log10 EC50 on record.
INSERT INTO measurements (compound, reported_measurement) VALUES
  ('O=C(NCCF)NC1CCc2c(Br)cccc21 (stereo not shown)', 2.01),
  ('O=C(NCCF)NC1CCc2cc(F)ccc21 (stereo not shown)', 2.73),
  ('O=C(NCCF)NC1CCc2cc(Br)ccc21 (stereo not shown)', 3.10),
  ('O=C(NCCF)NC1CCc2c(F)cccc21 (stereo not shown)', 2.03),
  ('O=C(NCCF)NC1CCCc2c(Br)cccc21 (stereo not shown)', 2.31);

Continue with the compound presented below.
I'd like to know its log10 EC50. The compound in question is O=C(NCCF)NC1CCc2ccc(Cl)cc21 (stereo not shown)
1.93

----------
system-tested: alpha2B receptor (Homo sapiens, UniProt P18089)
Construct: expressed in transfected cells; host or cells: NIH-3T3
method-description: Receptor Selection and Amplification Technology (RSAT) assay, alpha2B
Type: cell-based
test-settings: RSAT, NIH-3T3 cells cotransfected with receptor and Gq/i5; not active = not active at concentrations less than 10 micromolar; read-out: Alpha 2B EC50
measure: EC50 (nM)
Reply numerically in nM, unit not repeated.

INSERT INTO measurements (compound, measure, reported_measurement) VALUES
  ('O=C(NCCF)NC1CCc2cccc(Br)c21 (stereo not shown)', 'EC50', 20),
  ('O=C(NCCF)NC1Cc2cccc(F)c2C1 (stereo not shown)', 'EC50', 21),
  ('O=C(NCCF)NC1CCc2c(Br)cccc21 (stereo not shown)', 'EC50', 2.7),
  ('O=C(NCCF)NC1Cc2ccccc2C1', 'EC50', 18);

Provide the documented EC50 with alpha2B receptor (Homo sapiens, UniProt P18089) as the system for CC1=CCCCC1NC(=O)NCCF (stereo not shown)
74

Next record, please: Cc1ccc2c(c1)C(NC(=O)NCCF)CC2 (stereo not shown)
32

Then this compound: O=C(NCCF)NC1CCc2c(Cl)cccc21 (stereo not shown)
2.5

----------
system-tested: alpha2B receptor (Homo sapiens, UniProt P18089)
Construct: expressed in transfected cells; host or cells: NIH-3T3
Sequence (P18089 1-450): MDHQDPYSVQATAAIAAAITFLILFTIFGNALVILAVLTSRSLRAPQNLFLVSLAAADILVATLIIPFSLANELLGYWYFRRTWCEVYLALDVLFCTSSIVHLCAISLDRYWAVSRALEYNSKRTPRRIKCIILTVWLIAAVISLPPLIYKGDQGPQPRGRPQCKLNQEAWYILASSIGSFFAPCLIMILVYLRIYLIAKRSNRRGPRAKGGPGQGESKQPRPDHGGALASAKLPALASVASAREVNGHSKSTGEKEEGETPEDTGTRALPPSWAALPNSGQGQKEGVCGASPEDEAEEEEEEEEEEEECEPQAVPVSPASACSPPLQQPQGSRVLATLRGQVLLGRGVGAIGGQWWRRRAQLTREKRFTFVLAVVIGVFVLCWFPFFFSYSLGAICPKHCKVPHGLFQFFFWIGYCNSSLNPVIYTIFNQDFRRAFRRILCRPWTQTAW
method-description: Receptor Selection and Amplification Technology (RSAT) assay, alpha2B
Type: cell-based
test-settings: RSAT, NIH-3T3 cells cotransfected with receptor and Gq/i5; not active = not active at concentrations less than 10 micromolar; read-out: Alpha 2B EC50
compounds and their reported EC50
Express it in nM; write the number only.

Illustrative cases are given below, each with its answer.
INSERT INTO results (compound, reported_measurement) VALUES
  ('CC1CCC(NC(=O)NCCF)c2ccccc21 (centres unmarked)', 21),
  ('Cc1cccc2c1CCC2NC(=O)NCCF (centres unmarked)', 1.2);

Shift focus to the following entry.
Hi! What's the reported EC50 for CCc1cccc2c1CCCC2NC(=O)NCCF (centres unmarked) on alpha2B receptor (Homo sapiens, UniProt P18089)?
158

----------
system-tested: alpha2C receptor (Homo sapiens, UniProt P18825)
Construct: expressed in transfected cells; host or cells: NIH-3T3
Sequence (P18825 whole entry): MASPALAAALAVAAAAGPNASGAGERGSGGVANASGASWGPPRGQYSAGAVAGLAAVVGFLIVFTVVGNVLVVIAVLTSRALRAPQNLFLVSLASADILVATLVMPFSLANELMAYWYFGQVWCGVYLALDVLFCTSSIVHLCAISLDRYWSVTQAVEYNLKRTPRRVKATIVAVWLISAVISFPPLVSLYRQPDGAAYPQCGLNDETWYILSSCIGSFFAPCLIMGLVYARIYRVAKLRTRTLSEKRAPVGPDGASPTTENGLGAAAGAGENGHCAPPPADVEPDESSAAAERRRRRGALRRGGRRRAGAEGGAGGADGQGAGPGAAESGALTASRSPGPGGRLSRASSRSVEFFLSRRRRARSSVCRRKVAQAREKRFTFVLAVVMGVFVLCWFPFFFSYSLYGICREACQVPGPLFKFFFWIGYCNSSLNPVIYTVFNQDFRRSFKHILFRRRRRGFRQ
method-description: Receptor Selection and Amplification Technology (RSAT) assay, alpha2C
Format: cell-based
test-settings: ratio of maximal effect of the drug to maximal effect of standard full agonist brimonidine (UK14304)
Description: Receptor Selection and Amplification Technology (RSAT) Assay The RSAT assay measures a receptor-mediated loss of contact inhibition that results in selective proliferation of receptor-containing cells in a mixed population of confluent cells. The increase in cell number is assessed with an appropriate transfected marker gene such as β-galactosidase, the activity of which can be easily measured in a 96-well format. Receptors that activate the G protein, Gq, elicit this response. […]
The label depends only on Alpha 2C IA (intrinsic activity): Satisfied if it is at least 0.6, Not satisfied if it is smaller.

Sample answers from the record:
INSERT INTO measurements (compound, system_tested, class_label) VALUES
  ('Cc1cc(C)c2c(c1)C(NC(=O)NCCF)CCC2 (centres unmarked)', 'alpha2C receptor (Homo sapiens, UniProt P18825)', 'Not satisfied'),
  ('COc1cccc2c1C(NC(=O)NCCF)CC2 (centres unmarked)', 'alpha2C receptor (Homo sapiens, UniProt P18825)', 'Not satisfied'),
  ('O=C(NCCF)N[C@H]1CCc2ccccc21', 'alpha2C receptor (Homo sapiens, UniProt P18825)', 'Not satisfied'),
  ('O=C(NCCF)NC1CCc2ccc(Br)cc21 (centres unmarked)', 'alpha2C receptor (Homo sapiens, UniProt P18825)', 'Not satisfied'),
  ('CC1=CCCCC1NC(=O)NCCF (centres unmarked)', 'alpha2C receptor (Homo sapiens, UniProt P18825)', 'Not satisfied');

Consider the record given below.
Is the recorded value of Alpha 2C IA (intrinsic activity) equal to or greater than 0.6 for this compound? O=C(NCCF)NC1CCCc2occc21 (centres unmarked)
Not satisfied

----------
The entries below come with measured Alpha 2A IA (intrinsic activity) values attached.
system-tested: alpha2A receptor (Homo sapiens, UniProt P08913)
Construct: expressed in transfected cells; host or cells: NIH-3T3
Sequence (P08913 1-465): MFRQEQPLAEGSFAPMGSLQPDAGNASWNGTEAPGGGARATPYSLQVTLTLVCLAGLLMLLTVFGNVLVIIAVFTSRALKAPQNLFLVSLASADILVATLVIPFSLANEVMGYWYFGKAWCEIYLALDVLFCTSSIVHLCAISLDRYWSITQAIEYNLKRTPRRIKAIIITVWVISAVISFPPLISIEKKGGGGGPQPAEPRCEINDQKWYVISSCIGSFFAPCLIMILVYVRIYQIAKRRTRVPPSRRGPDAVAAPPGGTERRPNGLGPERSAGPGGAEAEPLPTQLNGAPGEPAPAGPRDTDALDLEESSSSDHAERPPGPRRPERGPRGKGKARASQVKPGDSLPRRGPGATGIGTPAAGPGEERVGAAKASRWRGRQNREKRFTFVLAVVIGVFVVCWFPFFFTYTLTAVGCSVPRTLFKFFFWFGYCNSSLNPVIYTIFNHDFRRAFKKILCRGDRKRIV
method-description: Receptor Selection and Amplification Technology (RSAT) assay, alpha2A
Format: cell-based
test-settings: ratio of maximal effect of the drug to maximal effect of standard full agonist brimonidine (UK14304)
Reply briefly: the number, and no unit.

INSERT INTO assay_data (molecule, reported_measurement) VALUES
  ('O=C(NCCF)NC1CCc2cccc(Cl)c21 (centres unmarked)', 0.68),
  ('Cc1cccc2c1C(NC(=O)NCCF)CC2 (centres unmarked)', 0.43),
  ('O=C(NCCF)N[C@@H]1CCc2ccccc21', 0.36),
  ('O=C(NCCF)NC1CCc2ncccc21 (centres unmarked)', 0.55),
  ('Nc1cccc2c1CCC2NC(=O)NCCF (centres unmarked)', 0.48),
  ('O=C(NCCF)NC1CCCCc2ccc(F)cc21 (centres unmarked)', 0.31),
  ('CC1CCC(NC(=O)NCCF)c2ccccc21 (centres unmarked)', 0.34),
  ('O=C(NCCF)NC1CCc2ccc(Cl)cc21 (centres unmarked)', 0.63);

So what Alpha 2A IA (intrinsic activity) did O=C(NCCF)NC1CCc2cccc(F)c21 (centres unmarked) get with alpha2A receptor (Homo sapiens, UniProt P08913)?
0.41

Thanks! And COc1cccc2c1C(NC(=O)NCCF)CC2 (centres unmarked) ?
0.48

Now consider COc1cccc2c1CCC2NC(=O)NCCF (centres unmarked) .
0.48

And the next one, O=C(NCCF)NC1CCc2c(F)cccc21 (centres unmarked) ?
0.76

Another molecule: O=C(NCCF)NC1CCc2cccc(Br)c21 (centres unmarked)
0.52

Now the molecule Cc1cccc2c1CCCC2NC(=O)NCCF (centres unmarked)
0.41

Same read-out for CCC[C@@H]1CCCC[C@H]1NC(=O)NCCF ?
0.4

What about CC1=C(C)C(NC(=O)NCCF)CC1 (centres unmarked) ?
0.36

Try the molecule CCc1cccc2c1CCCC2NC(=O)NCCF (centres unmarked)
0.32
